Cited source: ChEMBL document CHEMBL2380204

assay-summary: Therapeutic index, ratio of TC50 for human MT4 cells to EC50 for Human immunodeficiency virus 1 NL43 infected in human MT4 cells
Assay type: cell-based
experimental-conditions: read-out: TI
measurement-type: selectivity ratio

Ask: Tell me the measured selectivity ratio of `COc1cccc(-c2cnc(Nc3ccc4[nH]ncc4c3)o2)c1` , please.
Reply: > 45

Ask: Tell me the measured selectivity ratio of `COc1ccc(-c2cnc(Nc3ccc4[nH]ncc4c3)o2)cc1` , please.
Reply: > 1

Ask: Tell me the measured selectivity ratio of `c1ccc(-c2cnc(Nc3ccc4[nH]ncc4c3)o2)cc1` , please.
Reply: > 45

Ask: Tell me the measured selectivity ratio of `Clc1ccccc1-c1cnc(Nc2ccc3[nH]ncc3c2)o1` , please.
Reply: > 11

Ask: Tell me the measured selectivity ratio of `Clc1ccc(-c2cnc(Nc3ccc4[nH]ncc4c3)o2)cc1` , please.
Reply: > 30

Ask: Tell me the measured selectivity ratio of `Clc1ccc(-c2cnc(Nc3ccc4[nH]ncc4c3)o2)cc1Cl` , please.
Reply: > 2.9

Ask: Tell me the measured selectivity ratio of `Clc1cccc(-c2cnc(Nc3ccc4[nH]ncc4c3)o2)c1` , please.
Reply: > 1.9

Ask: Tell me the measured selectivity ratio of `COc1ccccc1-c1cnc(Nc2ccc3[nH]ncc3c2)o1` , please.
Reply: > 1
